- assay-protocol: method code SF-AS, from DOI: 10.1016/s0020-1693(00)85781-3
Each record is given met if its reported logP is strictly below 0.7. Records at or above 0.7 are given not met.

smiles-code: CC(=O)c1ccc2c(c1)COCCOCCOCCOCCOCCOC2
assigned-class: met
--
smiles-code: CC(C)(C)c1ccc2c(c1)COCCOCCOCCOCCOCc1cc(C(C)(C)C)ccc1COCCOCCOCCOCCOC2
assigned-class: not met
--
smiles-code: c1ccc2c(c1)COCCOCCOCCOCCOCc1ccccc1COCCOCCOCCOCCOC2
assigned-class: not met
--
smiles-code: O=C(O)c1ccc2c(c1)COCCOCCOCCOCCOCCOC2
assigned-class: met

Turning now to a further record.
Given the entry c1ccc2c(c1)COCCOCCOCCOCCOCCOC2 , would its reported logP be below 0.7?
met

---

- assay-protocol: method code SF-AS, from DOI: 10.1139/y89-042, PMID: 2547502
- condition-label: pH 7.4
value-kind: logD

Give the value of logD reported for the following: Nc1ncnc2c1nc(Br)n2[C@@H]1O[C@@H]2COP(=O)(O)O[C@H]2[C@H]1O
-2.44

---

value-kind: logP
Numbers only.

Field: example entries. Status: answers known.
smiles-code: OCCCNc1ccccc1
logP: 0.57

smiles-code: NCCCCc1ccccc1
logP: 2.25

smiles-code: Cc1ccc(CCN)cc1
logP: 1.83

Switching to the query record.
Give the value of logP reported for the following: Cc1ccccc1CCN
1.6

---

value-kind: logP
Give bare numbers.

Give the value of logP reported for the following: CCCCCCCBr
4.44

---

- assay-protocol: method code SF-HPLC, from DOI: 10.1002/ps.2780310207
value-kind: logP
Numbers only.

smiles-code: Fc1ccc(C2(Cn3cncn3)CCC2)cc1
value-kind: logP
quantitative-result: 1.93
--
smiles-code: Clc1ccc(C2(Cn3cncn3)CCC2)cc1
value-kind: logP
quantitative-result: 2.13
--
smiles-code: CC(C)(Cn1cncn1)c1ccc(F)cc1
value-kind: logP
quantitative-result: 1.74

Give the value of logP reported for the following: Clc1ccc(C2(Cn3cncn3)CC2)cc1
2.21

---

- assay-protocol: method code SF-HPLC, from DOI: 10.1208/s12249-013-0046-y, PMID: 24297599
- condition-label: pH 4.0
value-kind: logD
Give bare numbers.

Give the value of logD reported for the following: CC[C@@]1(O)C(=O)OCc2c1cc1n(c2=O)Cc2cc3c(N)cccc3nc2-1
1.26

---

Give logD for every item shown.
- assay-protocol: method code SF, from DOI: 10.1080/09553008714551831, PMID: 3497891
- condition-label: pH 7.4
Numbers only.

compound: COCC(O)Cn1ncc([N+](=O)[O-])n1 (stereo not drawn)
logD: -0.1
//
compound: COCC(O)Cn1cnc([N+](=O)[O-])n1 (stereo not drawn)
logD: -0.47

Switching to the query record.
Give the value of logD reported for the following: Nc1ncc([N+](=O)[O-])s1
0.89

---

- assay-protocol: method code SF-RC, from Audran, M.; Chanal, J.; Marignan, R.; Cousse, H. (1984). Correlations between structure and pharmacokinetic parameters in a series of cresotinamides. International Journal of Pharmaceutics, …
- condition-label: pH 1.0
value-kind: logD
Numbers only.

Give the value of logD reported for the following: Cc1cccc(C(N)=O)c1O
2.12

---

- assay-protocol: method code SF-GLC, from DOI: 10.1016/j.chemosphere.2004.08.061, PMID: 15519382
value-kind: logP

Give the value of logP reported for the following: Cn1c(Cl)c(Br)c(Cl)c1-c1c(Br)c(Br)c(Cl)n1C
6.5

---

- assay-protocol: method code SF-AS, from DOI: 10.1016/0891-5849(94)00112-w, PMID: 7744299
- condition-label: pH 7.5
value-kind: logD
Give bare numbers.

Give the value of logD reported for the following: O=Nc1ccccc1
1.86

---

- assay-protocol: method code SF-AS, from Rainer, G.; Krüger, U.; Klemm, K. (1981). Synthesis and physico-chemical properties of lonazolac-Ca, a new antiphlogistic/antirheumatic agent. Arzneimittelforschung, 31(4)649-55.
value-kind: logP
Answers are plain numbers.

Give the value of logP reported for the following: O=C(O)Cc1cn(-c2ccccc2)nc1-c1ccc(Cl)cc1
4.13

---

- assay-protocol: method code SF, from DOI: 10.1016/s0969-8051(99)00063-3, PMID: 10628565
- condition-label: pH 7.4
value-kind: logD

Give the value of logD reported for the following: CC(=O)OCC1C(OC(C)=O)C(OC(C)=O)C(OC(C)=O)CN1CCCI (stereo unspecified)
1.76

---

value-kind: logP
Answers are plain numbers.

Give the value of logP reported for the following: COC(=O)c1nc(Cl)c(Cl)c(N)c1Cl
2.3

---

value-kind: logP
Give bare numbers.

Give the value of logP reported for the following: CC(C)C(Nc1ccc(C(F)(F)F)cc1Cl)C(=O)OC(C#N)c1cccc(Oc2ccccc2)c1 (racemic)
5.5

---

Give logD for every item shown.
- assay-protocol: method code SF-AS, from PMID: 8197227
- condition-label: pH 7.4
One number for each entry.

Field: example entries. Status: answers known.
smiles-code: C(=NNc1nccs1)c1ccc2c(c1)OCO2
logD: 1.5
--
smiles-code: Cc1csc(NNC(=O)c2ccc3c(c2)OCO3)n1
logD: 1.41
--
smiles-code: O=C(NNc1nccs1)c1ccc2c(c1)OCO2
logD: 1.06

Switching to the query record.
Give the value of logD reported for the following: NC(=S)NNC(=O)c1ccc2c(c1)OCO2
0.21

---

- assay-protocol: method code SF-AS, from DOI: 10.1248/bpb1978.4.759, PMID: 7320829
Each record is given yes (1) if its reported logP is strictly below 2. Records at or above 2 are given no (0).

molecule: CC1(C)NC(=O)NC1=O
assigned-class: yes (1)

molecule: Cc1ccccc1S(=O)(=O)N1C(=O)NC(=O)C1(c1ccccc1)c1ccccc1
assigned-class: no (0)

molecule: CCC1(c2ccccc2)C(=O)NC(=O)N1S(=O)(=O)c1ccccc1 (stereo not given)
assigned-class: no (0)

Given the entry O=C1NC(=O)C(c2ccccc2)(c2ccc(O)cc2)N1 (stereo not given) , would its reported logP be below 2?
yes (1)

Given the entry O=C1NC(=O)C(c2ccccc2)(c2ccccc2)N1S(=O)(=O)c1ccc(Cl)cc1 , would its reported logP be below 2?
no (0)

---

Give logP for every item shown.
One number for each entry.

smiles-code: NC(=O)c1ccccc1C(N)=O
logP: 1.08

Switching to the query record.
Give the value of logP reported for the following: COc1cccc(C(=O)O)c1
1.9

---

- assay-protocol: method code SF-AS, from DOI: 10.1016/j.bmcl.2014.05.029, PMID: 24930836
value-kind: logP
Answers are plain numbers.

Give the value of logP reported for the following: Cc1cc(=O)oc2cc(OCC(O)Cn3cncn3)cc(OCC(O)Cn3cncn3)c12 (stereo unspecified)
0.65

---

- assay-protocol: method code SF-GLC, from Hermens, J., & De Bruijn, J. (1987). A QSAR study for fish toxicity data of organophosphorus compounds. QSAR in Drug Design and Toxicology, 10, 343-345.
Give logP for every item shown.
One number for each entry.

smiles-code: COP(=S)(OC)Oc1ccc(SC)cc1
logP: 3.64
//
smiles-code: COP(=S)(OC)Oc1cc(Cl)c(I)cc1Cl
logP: 4.61

Switching to the query record.
Give the value of logP reported for the following: COP(=S)(OC)Oc1ccccc1
2.97

---

- assay-protocol: method code SF-AS, from PMID: 7646571
- condition-label: pH 7.0
value-kind: logD
Answers are plain numbers.

Give the value of logD reported for the following: Cn1c(=O)[nH]c2ncn(CC(C)(C)C)c2c1=O
0.6

---

Give logP for every item shown.
- assay-protocol: method code SF-AS, from DOI: 10.1007/s001289900104, PMID: 8661852
Numbers only.

Field: example entries. Status: answers known.
smiles-code: Clc1ncc(-c2ncncn2)c(Cl)n1
logP: 1.32

smiles-code: CN(c1ccccc1)c1nc(Cl)nc(Cl)n1
logP: 3.07

smiles-code: O=[N+]([O-])c1c(O)nc(-c2ncncn2)nc1O
logP: 2.02

smiles-code: [N-]=[N+]=Nc1nc(N=[N+]=[N-])nc(Nc2ccccc2)n1
logP: 3.88

Switching to the query record.
Give the value of logP reported for the following: Clc1nc(Cl)nc(Nc2ccccc2)n1
3.03

---

Give logP for every item shown.
Numbers only.

smiles-code: CC(=O)OC[C@H]1O[C@@H](n2cc(C)c(=O)[nH]c2=O)C[C@@H]1O
logP: -0.25

Switching to the query record.
Give the value of logP reported for the following: Cc1cn([C@H]2C[C@H](N=[N+]=[N-])[C@@H](CO)O2)c(=O)[nH]c1=O
-0.09

---

- assay-protocol: method code SF-RC, from DOI: 10.1021/jm701375u, PMID: 18307287
- condition-label: pH 7.4
value-kind: logD
Numbers only.

Give the value of logD reported for the following: Brc1cccc(N2CCN(Cc3cnn4ccccc34)CC2)n1
1.98

Recorded values, source the SangsterLogP compilation.
